test_system: c-Src SH2
method_summary: SH2 binding enrichment of the phosphorylated peptide, bacterial display (enrichment ratio); higher = better substrate or ligand; peptides without Tyr show the background
test_readout: SH2 binding enrichment
Form rule: numeric answer, no unit written next to it.

Qu. What value of measured SH2 binding enrichment is listed for CDIPRYIVSQL [MAST2_Y461] ?
Ans. 0.406

Qu. Need SH2 binding enrichment, item LESILYESSVV [TRPV4_Y91_T89I]
Ans. 0.613

Qu. Which SH2 binding enrichment is listed for PNRILYRDFRQ [MYH7_Y715_G716R] ?
Ans. 0.557

Qu. Any idea what its SH2 binding enrichment is? The sequence is IGMFSYVMLAS [GGCX_Y301]
Ans. 0.424

Qu. I'd like to know its SH2 binding enrichment. The sequence in question is NKFTTYLPWLP [C9orf24_Y126_R129W_YF]
Ans. 0.815

Qu. Fill blank: measured SH2 binding enrichment of the sequence SDFFAYSPVQE [H6PD_Y449_R453Q_YF] is ____.
Ans. 1.83

Qu. Entry AGLVQYYMEHH [PTPN11_Y80_E76G] : reported SH2 binding enrichment = ?
Ans. 1.14

Qu. Value lookup for SH2 binding enrichment; key = KKFPDYIQIAR [SGMS2_Y59_M64R_YF]
Ans. 0.825

Qu. SH2 binding enrichment lookup needed for EAVSIYQFYGQ [CBLC_Y402_H405Y] , thanks.
Ans. 0.574

Qu. May I ask what SH2 binding enrichment has been recorded for INSLKYAFNVS [EIF2B5_Y583_I587V_YF] ?
Ans. 0.379

Qu. Recorded SH2 binding enrichment for VSYDEYRYRSV [CFTR_Y515] , please?
Ans. 1.45

Qu. Would you mind telling me what SH2 binding enrichment value was observed for NTPNAYLRVNV [ADD2_Y440_T439A] ?
Ans. 0.499

Qu. Any idea what its SH2 binding enrichment is? The sequence is SGAWSYNTSTE [SELE_Y24]
Ans. 0.536

Qu. Which SH2 binding enrichment value belongs to VKKNRYKDILP [PTPN12_Y64] ?
Ans. 0.766

----------
test_system: EPHB1 (UniProt P54762)
Sequence (P54762 whole entry, looked up): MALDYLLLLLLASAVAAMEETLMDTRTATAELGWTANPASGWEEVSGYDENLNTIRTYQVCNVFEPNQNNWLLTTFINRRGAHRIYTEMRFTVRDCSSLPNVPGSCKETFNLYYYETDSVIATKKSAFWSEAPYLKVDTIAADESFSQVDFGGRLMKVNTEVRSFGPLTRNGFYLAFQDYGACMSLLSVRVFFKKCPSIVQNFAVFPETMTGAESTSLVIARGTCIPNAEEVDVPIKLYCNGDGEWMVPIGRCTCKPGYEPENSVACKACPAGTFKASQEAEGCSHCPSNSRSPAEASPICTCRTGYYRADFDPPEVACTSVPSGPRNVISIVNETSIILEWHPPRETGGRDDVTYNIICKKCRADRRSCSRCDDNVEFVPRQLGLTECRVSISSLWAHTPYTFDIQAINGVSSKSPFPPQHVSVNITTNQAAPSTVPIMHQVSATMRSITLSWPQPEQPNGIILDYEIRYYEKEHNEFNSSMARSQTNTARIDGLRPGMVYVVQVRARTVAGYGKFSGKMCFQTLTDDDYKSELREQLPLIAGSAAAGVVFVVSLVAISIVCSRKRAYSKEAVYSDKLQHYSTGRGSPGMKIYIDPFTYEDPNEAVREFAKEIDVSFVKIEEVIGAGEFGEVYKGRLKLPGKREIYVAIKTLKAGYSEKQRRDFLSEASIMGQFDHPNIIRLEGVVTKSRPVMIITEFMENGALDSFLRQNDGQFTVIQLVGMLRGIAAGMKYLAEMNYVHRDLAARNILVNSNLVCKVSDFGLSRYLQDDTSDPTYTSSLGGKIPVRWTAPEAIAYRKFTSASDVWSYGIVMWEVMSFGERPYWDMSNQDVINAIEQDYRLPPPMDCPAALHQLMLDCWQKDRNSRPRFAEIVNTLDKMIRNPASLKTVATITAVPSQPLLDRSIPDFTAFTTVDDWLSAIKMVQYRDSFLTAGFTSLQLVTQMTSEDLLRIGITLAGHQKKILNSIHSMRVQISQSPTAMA
method_summary: phosphorylation enrichment, bacterial display (enrichment ratio); higher = better substrate or ligand; peptides without Tyr show the background
Label 1.0 when phosphorylation enrichment is at or above 0.7; otherwise label 0.0.

Qu. Would you say NTGVFYDLFGG [PTPN11_Y63_D61V_YF] shows phosphorylation enrichment at minimum 0.7?
Ans. 0.0

Qu. Dear colleague, could you confirm whether NGQALYAACQT [XDH_Y1092_V1091L] has phosphorylation enrichment at or above 0.7?
Ans. 1.0

Qu. Decide: is the reported value of phosphorylation enrichment for EQKKFYNAMKN [SCN5A_Y1495_K1500N_YF] equal to or greater than 0.7?
Ans. 0.0

Qu. Exam item: decide whether the reported phosphorylation enrichment for MDNQEYKDAYK [BRDT_Y331] is at least 0.7.
Ans. 0.0

Qu. Given the entry KDQGTYEDYVE [MYL6_Y86] , answer whether its phosphorylation enrichment meets or surpasses 0.7.
Ans. 0.0

Qu. Dear colleague, could you confirm whether KKYFSYAWPFY [BRDT_Y291_H288Y] has phosphorylation enrichment at or above 0.7?
Ans. 0.0

Qu. Could you please find out whether MPIPMYDGSQA [CARMIL1_Y637_A639G] has phosphorylation enrichment that meets 0.7 or exceeds it?
Ans. 1.0

Qu. # check: phosphorylation enrichment of CSRRLYQLTKL [AR_Y858_F857L] is greater than or equal to 0.7
Ans. 0.0

Qu. Check the entry DEEPPDRGPFC [SASH1_Y551_Y551D] : does phosphorylation enrichment equal or exceed 0.7?
Ans. 0.0

Qu. Quick check, phosphorylation enrichment >= 0.7? AFLLLYFNDTH [BMP15_Y235]
Ans. 1.0

Qu. State whether the measured phosphorylation enrichment reaches 0.7, counting equality as reaching it, for CTAIHYNFMCN [TP53_Y234_T231A_YF]
Ans. 0.0

Qu. hey, is phosphorylation enrichment for this one >= 0.7? RELGKYGLQAY [ALDH2_Y497_E496K]
Ans. 0.0

Qu. Form field: phosphorylation enrichment at least 0.7? Entry: CFSSEYHFVGG [CTSC_Y345_Y340C_YF]
Ans. 1.0

----------
So I've got a bunch of sequences here, and I need their phosphorylation enrichment values.
Tested on: c-Src
method_summary: phosphorylation enrichment, bacterial display (enrichment ratio); higher = better substrate or ligand; peptides without Tyr show the background

Qu. Request body: readout phosphorylation enrichment, system c-Src, query YSKDIYKRVTG [PANK2_Y405_N404I] . Return the value.
Ans. 0.394

Qu. c-Src / phosphorylation enrichment / DLAHKYHGGGG [HBB_Y146_A141D] : value?
Ans. 0.388

Qu. Fill in the recorded phosphorylation enrichment for this sequence, with c-Src as test system: QHNPEYVQQAS [LRRC7_Y1058]
Ans. 0.597

Qu. Entry DEEPPDRGPFC [SASH1_Y551_Y551D] , system c-Src: what phosphorylation enrichment was measured?
Ans. 0.513

Qu. Give phosphorylation enrichment (c-Src) of the following sequence: DCAAIYGNEPD [AKR1A1_Y50_E55D]
Ans. 1.65

Qu. Kindly state the measured phosphorylation enrichment obtained for TFLRTYTDAMQ [TSPAN7_Y124] with c-Src.
Ans. 0.413

Qu. Query for c-Src: what phosphorylation enrichment does the record show for DAASNYARGHF [TUBA3E_Y103_YF] ?
Ans. 0.394

----------
Field: SH2 binding enrichment. Provide a value for each of the sequences that follow.
test_system: SHP2-C SH2
method_summary: SH2 binding enrichment of the phosphorylated peptide, bacterial display (enrichment ratio); higher = better substrate or ligand; peptides without Tyr show the background
Respond using a number only.

Qu. Can you look up the measured SH2 binding enrichment of NKFTTYLPWLP [C9orf24_Y126_R129W_YF] for me?
Ans. 0.89

Qu. Fill in: SH2 binding enrichment of ASRKYYAMKIL [AKT3_Y174_G171R] is ___
Ans. 1.14

Qu. # get_value(readout='SH2 binding enrichment', item= FVSLIYTNFEA [GSTP1_Y109_I105V_YF] )
Ans. 1.15

Qu. Query (sequence): FFVVEYRNQKP [MUC17_Y4332_D4334N_YF] ; field requested: SH2 binding enrichment
Ans. 1.38

Qu. Name the recorded SH2 binding enrichment for SNKLFYQLEQE [PDPR_Y110_YF] .
Ans. 0.649

Qu. Dear colleague, I am looking for the recorded SH2 binding enrichment of the following sequence: KDYETYQPFQN [CTNND2_Y1157]
Ans. 0.664

Qu. Which value of SH2 binding enrichment has been reported for YQLENYCNGGG [INS_Y108] in the records?
Ans. 0.697

Qu. SH2 binding enrichment for LENSTYQYICV [CRB1_Y760_R764C] ?
Ans. 0.526

Qu. Endpoint output: SH2 binding enrichment of KKFPDYIQIAR [SGMS2_Y59_M64R_YF] . Value?
Ans. 0.884

Qu. Which measured SH2 binding enrichment value corresponds to LERFIYNRQEF [HLA-DPB1_Y59_E62Q_YF] ?
Ans. 0.783

Qu. Which SH2 binding enrichment value is on record for PPGRSYSPFDF [TNS1_Y793_YF] ?
Ans. 0.878

Qu. Reported SH2 binding enrichment, sequence AKLDEYIAIAK [RCOR3_Y46] : ____
Ans. 0.83

Qu. Please look up its SH2 binding enrichment: DKMEAYNINET [TEKT4_Y210_D213N]
Ans. 0.665

Qu. # SH2 binding enrichment lookup, item PIPAAYNRFDQ [CDC73_Y290_YF]
Ans. 0.648
